Target Entity: Transient receptor potential cation channel subfamily V member 1 (Rattus norvegicus)
Sequence (O35433 whole entry): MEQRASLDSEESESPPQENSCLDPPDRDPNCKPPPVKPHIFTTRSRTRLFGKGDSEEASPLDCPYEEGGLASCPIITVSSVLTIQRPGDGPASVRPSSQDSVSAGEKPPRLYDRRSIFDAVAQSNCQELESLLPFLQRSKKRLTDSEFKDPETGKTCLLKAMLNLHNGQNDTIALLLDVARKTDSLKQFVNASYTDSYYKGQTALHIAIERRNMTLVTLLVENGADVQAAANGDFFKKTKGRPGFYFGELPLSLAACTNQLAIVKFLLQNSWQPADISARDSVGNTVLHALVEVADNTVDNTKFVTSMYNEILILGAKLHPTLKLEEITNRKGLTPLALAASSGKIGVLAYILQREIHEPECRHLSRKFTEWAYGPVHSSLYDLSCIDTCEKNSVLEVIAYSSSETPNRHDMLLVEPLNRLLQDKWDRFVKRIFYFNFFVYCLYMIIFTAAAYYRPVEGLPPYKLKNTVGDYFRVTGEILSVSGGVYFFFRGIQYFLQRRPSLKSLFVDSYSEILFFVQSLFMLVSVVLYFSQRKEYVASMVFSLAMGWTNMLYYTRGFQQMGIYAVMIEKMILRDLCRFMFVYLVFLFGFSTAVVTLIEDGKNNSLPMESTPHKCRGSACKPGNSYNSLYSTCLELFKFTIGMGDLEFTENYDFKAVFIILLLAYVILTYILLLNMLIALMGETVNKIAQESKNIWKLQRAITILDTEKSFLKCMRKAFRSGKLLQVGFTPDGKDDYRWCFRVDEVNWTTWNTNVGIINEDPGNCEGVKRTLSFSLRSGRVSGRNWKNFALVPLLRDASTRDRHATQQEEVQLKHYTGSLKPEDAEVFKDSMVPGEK
Assay Name: Antagonist activity against capsaicin-induced 45calcium ion uptake in CHO cells expressing rat TRPV1
Type: functional, cell-based
So basically: is IC50 under 100 nM? Then Fulfilled. Not under? Then Not fulfilled.

Query block: Field: below-cutoff. Rule: recorded IC50 strictly less than 100 nM. Subject: FC(F)(F)c1ccc2[nH]c(N3CCN(c4ncccc4Cl)CC3)nc2c1
Result block: Not fulfilled

Query block: Field: below-cutoff. Rule: recorded IC50 strictly less than 100 nM. Subject: CN(C)c1ccc(-c2cc(C(F)(F)F)cc3[nH]c(N4CCN(c5ncccc5C(F)(F)F)CC4)nc23)cc1
Result block: Not fulfilled

Query block: Field: below-cutoff. Rule: recorded IC50 strictly less than 100 nM. Subject: C[C@@H]1CN(c2ncc(CO)cc2Cl)CCN1c1nc2cc(C(F)(F)F)cc(NC(=O)OC(C)(C)C)c2[nH]1
Result block: Fulfilled

Query block: Field: below-cutoff. Rule: recorded IC50 strictly less than 100 nM. Subject: C[C@@H]1CN(c2nc3c(-c4cc(F)c(F)c(F)c4)cc(C(F)(F)F)cc3[nH]2)CCN1c1ncccc1Br
Result block: Fulfilled

Query block: Field: below-cutoff. Rule: recorded IC50 strictly less than 100 nM. Subject: COC(=O)c1ccc2nc(N3CCN(c4ncccc4C(F)(F)F)CC3)[nH]c2c1
Result block: Not fulfilled

Query block: Field: below-cutoff. Rule: recorded IC50 strictly less than 100 nM. Subject: C[C@@H]1CN(c2ncc(C(O)c3ccccc3)cc2C(F)(F)F)CCN1c1nc2c(-c3cc(F)c(F)c(F)c3)cc(C(F)(F)F)cc2[nH]1 (stereo partly drawn)
Result block: Fulfilled

Query block: Field: below-cutoff. Rule: recorded IC50 strictly less than 100 nM. Subject: C=Cc1cnc(N2CCN(c3nc4c(-c5cc(F)c(F)c(F)c5)cc(C(F)(F)F)cc4[nH]3)[C@H](C)C2)c(Cl)c1
Result block: Fulfilled
